Value source: patent US10428140B2

List of hEphA6-SEAP-: absorbance at 450 nm, percentage with respect to hEphA4-SEAP-His as 100% values.
# target_under_test: T1, human EphA6 (Homo sapiens, UniProt Q9UF33)
# T1 construct: a protein of the extracellular region of each human Eph receptor fused with the SEAP protein and the His tag; made in house; host or cells: Expi293F cells (culture supernatant)
# T1 sequence (Q9UF33 23-550 limits assumed): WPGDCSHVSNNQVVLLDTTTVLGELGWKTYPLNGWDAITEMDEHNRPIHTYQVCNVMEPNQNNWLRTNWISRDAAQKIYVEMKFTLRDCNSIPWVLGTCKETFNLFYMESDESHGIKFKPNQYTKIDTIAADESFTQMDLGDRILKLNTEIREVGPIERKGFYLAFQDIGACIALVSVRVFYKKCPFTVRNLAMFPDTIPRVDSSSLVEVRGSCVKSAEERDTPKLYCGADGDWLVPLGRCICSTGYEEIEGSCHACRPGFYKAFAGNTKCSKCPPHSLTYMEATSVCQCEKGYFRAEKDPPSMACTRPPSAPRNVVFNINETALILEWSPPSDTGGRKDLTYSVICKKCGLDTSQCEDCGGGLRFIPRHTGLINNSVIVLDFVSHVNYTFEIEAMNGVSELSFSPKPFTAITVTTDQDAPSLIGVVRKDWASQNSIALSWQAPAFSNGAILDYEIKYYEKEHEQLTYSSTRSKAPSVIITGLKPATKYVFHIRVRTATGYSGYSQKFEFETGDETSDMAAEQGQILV
# method: Selectivity ELISA of humanized antibodies for human Eph receptor
# Format: binding
# test_parameters: coated protein 1 nM
Entry rule: numbers only, all in %.

Solved entries:
- molecule: "85 (antibody, V domains shown, constant regions without entry; synthetic humanized antibody light chain variable region sequence; synthetic humanized antibody heavy chain variable region sequence) VL: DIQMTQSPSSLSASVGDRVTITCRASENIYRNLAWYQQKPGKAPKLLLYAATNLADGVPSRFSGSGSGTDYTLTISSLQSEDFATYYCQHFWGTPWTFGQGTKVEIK VH: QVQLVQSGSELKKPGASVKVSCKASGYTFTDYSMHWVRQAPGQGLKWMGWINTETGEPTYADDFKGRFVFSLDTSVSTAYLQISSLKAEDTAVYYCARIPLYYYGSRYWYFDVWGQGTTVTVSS"
  recorded_number: 6.2
- molecule: "69 (antibody, V domains shown, synthetic humanized antibody heavy chain variable region sequence; synthetic humanized antibody light chain variable region sequence) VH: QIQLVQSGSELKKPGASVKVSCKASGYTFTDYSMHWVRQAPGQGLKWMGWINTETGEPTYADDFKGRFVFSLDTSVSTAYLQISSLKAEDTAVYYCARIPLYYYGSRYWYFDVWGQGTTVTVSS VL: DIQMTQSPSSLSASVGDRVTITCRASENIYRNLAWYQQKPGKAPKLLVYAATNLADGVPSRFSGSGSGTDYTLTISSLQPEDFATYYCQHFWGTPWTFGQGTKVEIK"
  recorded_number: 9.5
- molecule: "158 (antibody, V domains shown, synthetic humanized antibody heavy chain variable region sequence; synthetic humanized antibody light chain variable region sequence) VH: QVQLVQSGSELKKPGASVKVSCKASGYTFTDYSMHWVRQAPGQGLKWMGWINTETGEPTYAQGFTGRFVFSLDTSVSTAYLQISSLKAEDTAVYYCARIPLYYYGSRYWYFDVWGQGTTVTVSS VL: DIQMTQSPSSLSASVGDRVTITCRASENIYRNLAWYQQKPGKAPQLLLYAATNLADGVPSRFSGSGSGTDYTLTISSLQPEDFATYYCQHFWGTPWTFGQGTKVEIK"
  recorded_number: 10.0
- molecule: "76 (antibody, V domains shown, synthetic humanized antibody heavy chain variable region sequence; synthetic humanized antibody light chain variable region sequence) VH: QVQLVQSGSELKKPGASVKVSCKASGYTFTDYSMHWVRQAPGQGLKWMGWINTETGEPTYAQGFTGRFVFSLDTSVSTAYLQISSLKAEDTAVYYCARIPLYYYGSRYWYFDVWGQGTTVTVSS VL: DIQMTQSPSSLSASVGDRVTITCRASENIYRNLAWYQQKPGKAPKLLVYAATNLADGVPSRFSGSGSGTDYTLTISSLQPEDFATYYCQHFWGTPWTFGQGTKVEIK"
  recorded_number: 7.9

As a next step, examine the molecule that follows.
Determine from records and report hEphA6-SEAP-: absorbance at 450 nm, percentage with respect to hEphA4-SEAP-His as 100% for 78 (antibody, V domains shown, synthetic humanized antibody heavy chain variable region sequence; synthetic humanized antibody light chain variable region sequence) VH: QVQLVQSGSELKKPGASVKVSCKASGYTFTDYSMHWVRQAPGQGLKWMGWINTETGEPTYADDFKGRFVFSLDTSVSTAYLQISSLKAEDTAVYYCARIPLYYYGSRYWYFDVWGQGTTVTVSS VL: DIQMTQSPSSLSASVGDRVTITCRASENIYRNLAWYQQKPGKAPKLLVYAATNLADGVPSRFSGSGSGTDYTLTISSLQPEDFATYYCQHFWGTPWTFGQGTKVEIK 10.0
